// endpoint pIC50 / system hsEH (Homo sapiens, UniProt P34913)
pIC50 is defined as minus the log10 of a concentration measured in mol/L.

Reference set, count: 5
# COMPOUND, pIC50
data = [
    ("COc1ccc(NC(=O)N2CCC(Cc3ccc4ccccc4c3)CC2)cc1 [Compound B-8]", 6.92),
    ("O=C(Nc1ccc(OC(F)(F)F)cc1)N1CCC(Cc2cnc3ccccc3c2)CC1 [Compound B-4]", 8.10),
    ("O=Cc1ccc(O[C@H]2CC[C@H](NC(=O)Nc3ccc(OC(F)(F)F)cc3)CC2)cc1 [Compound A-20]", 8.40),
    ("COC(=O)CNC(=O)c1ccc(O[C@H]2CC[C@H](NC(=O)Nc3ccc(OC(F)(F)F)cc3)CC2)cc1 [Compound A-17]", 8.52),
    ("CC(C)OC(=O)c1ccc(O[C@H]2CC[C@H](NC(=O)Nc3ccc(OC(F)(F)F)cc3)CC2)cc1 [Compound A-13]", 8.30),
]

Ask: Query for hsEH (Homo sapiens, UniProt P34913): what pIC50 does the record show for COC(=O)c1ccc(O[C@H]2CC[C@H](NC(=O)Nc3ccc(OC(F)(F)F)cc3)CC2)cc1 [Compound A-12] ?
Reply: 8.15

Ask: Query for hsEH (Homo sapiens, UniProt P34913): what pIC50 does the record show for O=C(Nc1ccc(C(F)(F)F)cc1F)N1CCC(Cc2cccc(Oc3ccc(C(F)(F)F)cn3)c2)CC1 [Compound B-18] ?
Reply: 8.05

Ask: Query for hsEH (Homo sapiens, UniProt P34913): what pIC50 does the record show for NC(=O)c1ccc(O[C@H]2CC[C@H](NC(=O)Nc3ccc(OC(F)(F)F)cc3)CC2)cc1 [Compound A-19] ?
Reply: 8.70

Ask: Query for hsEH (Homo sapiens, UniProt P34913): what pIC50 does the record show for O=C(Nc1ccc(C(F)(F)F)nc1)N1CCC(Cc2cccc(Oc3ccc(C(F)(F)F)cn3)c2)CC1 [Compound B-15] ?
Reply: 7.15

Ask: Query for hsEH (Homo sapiens, UniProt P34913): what pIC50 does the record show for O=C(NCCCCOc1ccc(C(=O)O)cc1)Nc1ccc(OC(F)(F)F)cc1 [Compound A-6] ?
Reply: 7.82
